Quick reference for GI50 among some compounds
Test system: UACC-257
PROTOCOL SUMMARY: NCI tumour cell line growth inhibition, 48 h
Calls of active or inactive are those of the source. Cut-off read from the data, not from the text of the source: active = GI50 up to about 1.1 µM and inactive = higher.

Take a look at these entries with their results.
CN1C2CCC1CC(=CCOC(c1ccc(F)cc1)c1ccc(F)cc1)C2 = 16.1 µM (inactive)
Cc1ccc(S(=O)(=O)c2c(N)n(CCN(C)C)c3nc4ccccc4nc23)cc1 = 71.9 µM (inactive)
CCCCCn1c(=O)c2c(=O)[nH][nH]c2c2ccccc21 = > 100 µM (inactive)
Nc1nc(SCCc2ccccc2)c2nc[nH]c2n1 = 23.7 µM (inactive)
O=C(O)[C@@H](NS(=O)(=O)c1ccc2ccccc2c1)c1ccccc1 = > 100 µM (inactive)

Here is the next item to consider.
Name the reported GI50 value associated with the compound `CC(=O)OCCc1cc2ccccc2oc1=O` > 100 µM (inactive)
